Value source: paper PMC11418112

Reported kcat/KM of SpoIIAA-P dephosphorylation (multiple turnover, 0.1 μM SpoIIE, 10 mM MgCl2) values are given for each entry in this list.
# experimental-system: T1, SpoIIAA-P (phosphorylated SpoIIAA) (B. subtilis) (UniProt P10727)
# T1 sequence (chain, phosphoserine at 58 (32P in the labelled tracer)): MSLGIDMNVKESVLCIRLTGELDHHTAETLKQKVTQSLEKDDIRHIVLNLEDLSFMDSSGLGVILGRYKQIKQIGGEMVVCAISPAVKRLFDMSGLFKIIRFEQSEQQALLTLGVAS
The figure you give is taken to be in μM^–1 min^–1; do not add the unit.

SpoIIE^I723S (phosphatase domain, SpoIIE^590-827) (domain or fragment) SYRVSTGAAHAAKGGGLVSGDSYSMMELGARKYAAAISDGMGNGARAHFESNETIKLLEKILESGIDEKIAIKTINSILSLRTTDEIYSTLDLSIIDLQDASCKFLKVGSTPSFIKRGDQVMKVQASNLPIGISNEFDVEVVSEQLKAGDLLIMMSDGIFEGPKHVENHDLWMKRKMKGLKTNDPQEIADLLMEEVIRTRSGQIEDDMTVVVVRIDHNTPKWASIPVPAIFQNKQEIS : 0.001

Specify reported kcat/KM of SpoIIAA-P dephosphorylation (multiple turnover, 0.1 μM SpoIIE, 10 mM MgCl2) for the binder shown: SpoIIE phosphatase domain (SpoIIE^590-827) (domain or fragment) SYRVSTGAAHAAKGGGLVSGDSYSMMELGARKYAAAISDGMGNGARAHFESNETIKLLEKILESGIDEKIAIKTINSILSLRTTDEIYSTLDLSIIDLQDASCKFLKVGSTPSFIKRGDQVMKVQASNLPIGIINEFDVEVVSEQLKAGDLLIMMSDGIFEGPKHVENHDLWMKRKMKGLKTNDPQEIADLLMEEVIRTRSGQIEDDMTVVVVRIDHNTPKWASIPVPAIFQNKQEIS
0.011

Specify reported kcat/KM of SpoIIAA-P dephosphorylation (multiple turnover, 0.1 μM SpoIIE, 10 mM MgCl2) for the binder shown: SpoIIE^P752R (phosphatase domain, SpoIIE^590-827) (domain or fragment) SYRVSTGAAHAAKGGGLVSGDSYSMMELGARKYAAAISDGMGNGARAHFESNETIKLLEKILESGIDEKIAIKTINSILSLRTTDEIYSTLDLSIIDLQDASCKFLKVGSTPSFIKRGDQVMKVQASNLPIGIINEFDVEVVSEQLKAGDLLIMMSDGIFEGRKHVENHDLWMKRKMKGLKTNDPQEIADLLMEEVIRTRSGQIEDDMTVVVVRIDHNTPKWASIPVPAIFQNKQEIS
0.0039

Specify reported kcat/KM of SpoIIAA-P dephosphorylation (multiple turnover, 0.1 μM SpoIIE, 10 mM MgCl2) for the binder shown: SpoIIE^E675S (phosphatase domain, SpoIIE^590-827) (domain or fragment) SYRVSTGAAHAAKGGGLVSGDSYSMMELGARKYAAAISDGMGNGARAHFESNETIKLLEKILESGIDEKIAIKTINSILSLRTTDSIYSTLDLSIIDLQDASCKFLKVGSTPSFIKRGDQVMKVQASNLPIGIINEFDVEVVSEQLKAGDLLIMMSDGIFEGPKHVENHDLWMKRKMKGLKTNDPQEIADLLMEEVIRTRSGQIEDDMTVVVVRIDHNTPKWASIPVPAIFQNKQEIS
0.001
